- STUDY SYSTEM: mouse EphA4 extracellular region-SEAP-His protein (mouse)
- Sequence (chain, as listed by the source limits assumed): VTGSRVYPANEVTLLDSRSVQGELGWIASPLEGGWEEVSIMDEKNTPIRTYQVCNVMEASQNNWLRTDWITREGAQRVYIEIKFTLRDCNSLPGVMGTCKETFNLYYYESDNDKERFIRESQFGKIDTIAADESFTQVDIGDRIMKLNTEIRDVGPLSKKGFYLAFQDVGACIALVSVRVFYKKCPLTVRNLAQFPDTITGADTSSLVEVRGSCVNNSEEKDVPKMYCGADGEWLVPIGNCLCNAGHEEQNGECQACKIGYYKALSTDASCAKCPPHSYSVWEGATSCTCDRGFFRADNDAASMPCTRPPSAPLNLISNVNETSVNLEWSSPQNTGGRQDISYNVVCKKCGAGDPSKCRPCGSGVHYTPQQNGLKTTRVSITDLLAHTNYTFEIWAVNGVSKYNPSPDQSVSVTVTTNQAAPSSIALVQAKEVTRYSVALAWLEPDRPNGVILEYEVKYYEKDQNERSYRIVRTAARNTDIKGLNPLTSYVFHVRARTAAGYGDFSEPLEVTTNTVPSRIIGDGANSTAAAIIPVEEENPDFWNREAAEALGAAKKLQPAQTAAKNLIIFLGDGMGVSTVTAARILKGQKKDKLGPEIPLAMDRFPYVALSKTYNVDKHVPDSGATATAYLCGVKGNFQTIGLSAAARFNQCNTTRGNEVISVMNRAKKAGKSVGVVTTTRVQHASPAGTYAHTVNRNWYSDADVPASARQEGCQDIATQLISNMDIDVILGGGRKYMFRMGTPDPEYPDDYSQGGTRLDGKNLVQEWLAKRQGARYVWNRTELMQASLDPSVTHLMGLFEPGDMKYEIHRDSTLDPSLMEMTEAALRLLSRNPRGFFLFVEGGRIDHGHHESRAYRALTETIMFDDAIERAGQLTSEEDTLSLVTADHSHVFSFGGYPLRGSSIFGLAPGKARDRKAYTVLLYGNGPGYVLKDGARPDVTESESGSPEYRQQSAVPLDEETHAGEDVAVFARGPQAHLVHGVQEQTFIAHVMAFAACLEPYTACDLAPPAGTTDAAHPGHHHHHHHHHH
- METHOD NOTES: competition ELISA: mouse EphA4 extracellular region-SEAP-His captured on the plate, blocked ligand mouse Ephrin A1-Fc chimera (20 nM)
MEASURED PARAMETER: pIC50
Field pIC50 (float): negative decimal logarithm of the concentration in molar.

Prompt: Could you share which pIC50 value was measured for KYLPYWPVLSSL (synthetic peptide) [KYL peptide] ?
Completion: 5.89
